Reference source: paper PMC9865501

For AChE (Electrophorus electricus, UniProt O42275), measured pIC50 is reported for the entries below.
Numbers only, as −log10 of the molar value.

Each of the following entries comes with a recorded value; kindly state pIC50 for each.
1. COc1cc2cc(C(=O)Nc3ccc(Br)cc3)c(=O)oc2cc1O [Compound 7]
2. COc1cc2ccc(=O)oc2cc1OS(=O)(=O)c1ccc(C(F)(F)F)cc1 [Compound 4f]
3. COc1cc2cc(C(=O)Nc3ccc(Br)cc3)c(=O)oc2cc1OS(=O)(=O)c1ccc(Cl)cc1 [Compound 7d]
4. COc1ccc(S(=O)(=O)Oc2cc3oc(=O)c(-c4ccc(F)cc4)cc3cc2OC)cc1 [Compound 5b]
5. COc1cc2cc(-c3ccc(F)cc3)c(=O)oc2cc1OS(=O)(=O)c1ccc(F)cc1 [Compound 5c]
6. COc1cc2ccc(=O)oc2cc1OS(=O)(=O)c1cc(Cl)c(Cl)cc1Cl [Compound 4h]
7. COc1cc2cc(C(=O)Nc3ccc(Br)cc3)c(=O)oc2cc1OS(=O)(=O)c1ccccc1 [Compound 7a]

Result:
1: 3.71; 2: 3.38; 3: 3.76; 4: 3.47; 5: 3.72; 6: 3.38; 7: 3.65
